Measured values drawn from paper PMC6509406 for this set.

biological target: DgcA (CC3285) diguanylate cyclase (Caulobacter crescentus, UniProt Q9A3B9); test: FRET-based DGC activity assay, dose-response; assay type: biochemical; conditions: compound saturating concentration
Measured remaining DGC activity of the enzyme-inhibitor-substrate complex values are reported for all entries that follow.

- compound: "O=C(OCC(=O)N1CCCC1=O)c1ccc2ncoc2c1 [Compound 1g]"
  readoutValue: "87.7%"
- compound: "O=C(NCC(=O)N1CCCC1=O)c1ccc2ncsc2c1 [Compound 1s]"
  readoutValue: "48%"

Problem: Returns the measured remaining DGC activity of the enzyme-inhibitor-substrate complex for the input compound. Input: O=C(OCC(=O)N1CCCC1=O)c1ccccc1 [Compound 1h]
Solution: 118%

Problem: Returns the measured remaining DGC activity of the enzyme-inhibitor-substrate complex for the input compound. Input: O=C(OCC(=O)N1CCCC1=O)c1ccc([N+](=O)[O-])cc1 [Compound 1r]
Solution: 156%

Problem: Returns the measured remaining DGC activity of the enzyme-inhibitor-substrate complex for the input compound. Input: Cc1ccc(C)c(OCCCC(=O)Nc2ccc(N3CCOCC3)cc2)c1 [Compound 2]
Solution: 31.4%

###

molecular target: DgcA (CC3285) diguanylate cyclase (Caulobacter crescentus, UniProt Q9A3B9); test: FRET-based DGC activity assay, dose-response; assay type: biochemical; settings: IC50 ± SD, Table 1; 20 nM DgcA, 20 μM GTP, 25 °C, 1% DMSO
measurementName: IC50 (µM)
Numeric answer only, unit µM assumed.

Problem: Returns the measured IC50 for the input compound. Input: O=C(OCC(=O)N1CCCC1=O)c1ccc2ncsc2c1 [Compound 1]
Solution: 4

###

target: UniProt Q9A3B9; test: FRET-based DGC activity assay, dose-response; format: biochemical; conditions: in words
measurementName: mode of modulation of DgcA activity

Would you please look over these solved cases?
- compound: "O=C(NCC(=O)N1CCCC1=O)c1ccc2ncsc2c1 [Compound 1s]"
  readoutValue: "partial inhibitor"
- compound: "Cn1ccc2cc(C(=O)OCC(=O)N3CCCC3=O)ccc21 [Compound 1l]"
  readoutValue: "negative modulators"
- compound: "O=C(OCC(=O)N1CCCC1=O)c1ccc2nccnc2c1 [Compound 1o]"
  readoutValue: "negative modulators"
- compound: "Cc1ccc(C)c(OCCCC(=O)Nc2ccc(N3CCOCC3)cc2)c1 [Compound 2]"
  readoutValue: "partial inhibitor"

Problem: Returns the measured mode of modulation of DgcA activity for the input compound. Input: CN(C)c1ccc(C(=O)OCC(=O)N2CCCC2=O)cc1 [Compound 1q]
Solution: positive modulators

Problem: Returns the measured mode of modulation of DgcA activity for the input compound. Input: Cn1cnc2cc(C(=O)OCC(=O)N3CCCC3=O)ccc21 [Compound 1m]
Solution: negative modulators

Problem: Returns the measured mode of modulation of DgcA activity for the input compound. Input: O=C(OCC(=O)N1CCCC1=O)c1ccc2cnccc2c1 [Compound 1n]
Solution: negative modulators

Problem: Returns the measured mode of modulation of DgcA activity for the input compound. Input: O=C(OCC(=O)N1CCCC1=O)c1ccc([N+](=O)[O-])cc1 [Compound 1r]
Solution: positive modulators

Problem: Returns the measured mode of modulation of DgcA activity for the input compound. Input: O=C(OCC(=O)N1CCCC1=O)c1ccc2[nH]ccc2c1 [Compound 1k]
Solution: negative modulators
